- measurement notes: binders of probe aFGF10 on microarray, primary screen, stem cell growth factor project, biochemical, small-molecule microarray, fluorescence 635/667 (AID 1071);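 also: score merges 667 nm spot intensity and signal to noise from triplicate slides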
- condition notes: higher = more signal
measured parameter: composite z-score
Keep the answer to the number alone.

Examples from the recorded data:
INSERT INTO measurements (compound, measured_parameter, obs_value) VALUES
  ('Cc1ccc(S(=O)(=O)c2cc3oc2CC[C@@H](CO)NC(=O)N(C)Cc2cn(nn2)C[C@H](Cc2ccccc2)NC3=O)cc1', 'composite z-score', 0.175),
  ('COC(=O)c1c(CC[C@@H](CO)NC(=O)N[C@H](Cn2cc(-c3cncn3C)nn2)C(C)C)oc(C(C)=O)c1C(=O)OC', 'composite z-score', 0.66),
  ('COc1ccc(C(O)C2C=CC3C(=O)N(C)C(=O)C3N2N2CCCCC2)cc1OCc1ccccc1 (centres undefined)', 'composite z-score', 0.49),
  ('C[C@]1(C(=O)NCc2ccccc2)c2ccccc2C(=O)N(Cc2cc(C(F)(F)F)cc(C(F)(F)F)c2)[C@H]1c1ccc(CO)cc1', 'composite z-score', 0.149);

Specify reported composite z-score for the compound shown: CO[C@H]1COC(=O)[C@@H](Cc2ccccc2)NC(=O)[C@@H](C)COC(=O)CC=C[C@@H]1C
-0.0799

Specify reported composite z-score for the compound shown: C=CCC(OC(C)=O)[C@@H]1[C@@H](N(Cc2cc3ccccc3o2)C(=O)Cc2ccc(F)cc2)c2cc(OCCCO)ccc2N1C(=O)c1ccc(-c2ccccc2)cc1 (some centres undefined)
-0.263

Specify reported composite z-score for the compound shown: Cc1ccc(N2C(=O)c3ccccc3[C@@H](C(=O)NCc3ccccc3)[C@@H]2c2ccc(CO)cc2)nc1
-0.741

Specify reported composite z-score for the compound shown: NC(=O)[C@H]1[C@@H]2C(=O)O[C@@H](c3ccccc3)[C@@H](c3ccccc3)N2[C@@H](c2ccc(O)cc2)[C@]12C(=O)Nc1ccc(C#CCCO)cc12
-0.861

Specify reported composite z-score for the compound shown: CCC(=O)[C@]12O[C@@]3([C@@H]4C(=O)OCC[C@@H]41)N(Cc1ccccc1)C(C)=C(C(=O)OC)[C@@H](c1ccccc1)N3C2=O
-0.133

Cited source for all entries: PubChem BioAssay
